# tgt: Cyclin-dependent kinase 1 (Homo sapiens)
# Sequence (P06493 whole entry): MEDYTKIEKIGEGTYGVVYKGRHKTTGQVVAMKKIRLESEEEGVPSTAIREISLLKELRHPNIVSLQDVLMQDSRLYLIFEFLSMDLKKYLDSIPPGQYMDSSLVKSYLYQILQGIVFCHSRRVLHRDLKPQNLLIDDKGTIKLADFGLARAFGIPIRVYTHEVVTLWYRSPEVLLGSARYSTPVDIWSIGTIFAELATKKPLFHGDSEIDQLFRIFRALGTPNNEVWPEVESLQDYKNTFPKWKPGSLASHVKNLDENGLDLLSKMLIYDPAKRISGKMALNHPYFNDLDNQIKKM
property.name: IC50 (nM)
// note: answer is a bare numeric in nM

Quickly give me recorded IC50 for N[C@H](CNc1ncc(-c2ccc3c(c2)CC(=O)N3)s1)Cc1ccc(C(F)(F)F)cc1
250

----------
# test.description: Cmax in Sprague-Dawley rat at 5 mg/kg, po
# Type: ADME, organism-based
# Set-up: dose 5 mg/kg, route oral
# experimental.context: in vivo
Reported Cmax values follow for various compounds
Return type: number; implicit unit ng/mL.

Read off the recorded Cmax for N[C@H](CNc1ncc(-c2ccc3[nH]c(=O)oc3c2)s1)Cc1ccc(C(F)(F)F)cc1
68

Retrieve Cmax measured for N[C@H](CNc1ncc(-c2ccc3c(c2)CC(=O)N3)s1)Cc1ccc(C(F)(F)F)cc1 and print it.
417

Return reported Cmax. Input compound: N[C@H](CNc1ncc(-c2ccc3cnccc3c2)s1)Cc1ccc(C(F)(F)F)cc1
66

----------
# test.description: Oral bioavailability in Sprague-Dawley rat at 5 mg/kg
# Type: ADME, organism-based
# experimental.context: in vivo
Below, each entry is listed alongside its reported bioavailability.
Provide only the numeric value, understood in %.

Study these solved cases before continuing.
molecule.smiles | bioavailability, %
N[C@H](CNc1ncc(-c2ccc3cnccc3c2)s1)Cc1ccc(C(F)(F)F)cc1 | 20
N[C@H](CNc1ncc(-c2ccc3c(c2)CC(=O)N3)s1)Cc1ccc(C(F)(F)F)cc1 | 64

Okay, now this compound:
# return recorded bioavailability for input N[C@H](CNc1ncc(-c2ccc3[nH]c(=O)oc3c2)s1)Cc1ccc(C(F)(F)F)cc1
11

----------
# tgt: Mast/stem cell growth factor receptor Kit (Homo sapiens)
# Sequence (P10721 whole entry): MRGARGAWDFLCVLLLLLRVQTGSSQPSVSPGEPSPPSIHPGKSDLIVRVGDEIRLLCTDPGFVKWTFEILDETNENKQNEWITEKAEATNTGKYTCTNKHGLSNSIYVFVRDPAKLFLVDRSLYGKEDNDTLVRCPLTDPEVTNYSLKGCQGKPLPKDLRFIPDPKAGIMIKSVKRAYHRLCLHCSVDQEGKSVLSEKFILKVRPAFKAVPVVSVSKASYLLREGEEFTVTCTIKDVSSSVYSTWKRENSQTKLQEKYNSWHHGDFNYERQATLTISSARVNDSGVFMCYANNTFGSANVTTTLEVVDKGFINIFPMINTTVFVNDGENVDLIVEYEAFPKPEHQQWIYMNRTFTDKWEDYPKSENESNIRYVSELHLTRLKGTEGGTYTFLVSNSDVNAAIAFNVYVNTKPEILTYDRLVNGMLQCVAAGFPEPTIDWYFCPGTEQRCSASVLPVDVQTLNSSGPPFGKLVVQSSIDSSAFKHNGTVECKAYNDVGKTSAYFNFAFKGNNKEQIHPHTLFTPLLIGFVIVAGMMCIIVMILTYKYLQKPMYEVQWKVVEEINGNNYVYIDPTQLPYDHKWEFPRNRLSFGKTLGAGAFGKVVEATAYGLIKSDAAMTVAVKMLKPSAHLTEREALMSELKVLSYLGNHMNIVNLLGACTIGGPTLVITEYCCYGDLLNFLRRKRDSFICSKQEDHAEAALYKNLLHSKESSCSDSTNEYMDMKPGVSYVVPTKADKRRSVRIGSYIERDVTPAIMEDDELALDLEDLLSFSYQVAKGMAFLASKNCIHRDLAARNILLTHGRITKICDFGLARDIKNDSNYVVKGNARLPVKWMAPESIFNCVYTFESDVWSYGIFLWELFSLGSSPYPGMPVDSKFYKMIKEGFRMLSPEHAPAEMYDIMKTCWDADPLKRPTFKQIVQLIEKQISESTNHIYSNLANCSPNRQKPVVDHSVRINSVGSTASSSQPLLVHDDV
property.name: pIC50
pIC50 here: minus log base 10 of the concentration, concentration in moles per litre.

Tell me pIC50 of N[C@H](CNc1ncc(-c2ccc3c(c2)CC(=O)N3)s1)Cc1ccc(C(F)(F)F)cc1 when tested on Mast/stem cell growth factor receptor Kit (Homo sapiens).
6.96

----------
# tgt: RAC-alpha serine/threonine-protein kinase (Homo sapiens, UniProt P31749)
# Sequence (P31749 whole entry): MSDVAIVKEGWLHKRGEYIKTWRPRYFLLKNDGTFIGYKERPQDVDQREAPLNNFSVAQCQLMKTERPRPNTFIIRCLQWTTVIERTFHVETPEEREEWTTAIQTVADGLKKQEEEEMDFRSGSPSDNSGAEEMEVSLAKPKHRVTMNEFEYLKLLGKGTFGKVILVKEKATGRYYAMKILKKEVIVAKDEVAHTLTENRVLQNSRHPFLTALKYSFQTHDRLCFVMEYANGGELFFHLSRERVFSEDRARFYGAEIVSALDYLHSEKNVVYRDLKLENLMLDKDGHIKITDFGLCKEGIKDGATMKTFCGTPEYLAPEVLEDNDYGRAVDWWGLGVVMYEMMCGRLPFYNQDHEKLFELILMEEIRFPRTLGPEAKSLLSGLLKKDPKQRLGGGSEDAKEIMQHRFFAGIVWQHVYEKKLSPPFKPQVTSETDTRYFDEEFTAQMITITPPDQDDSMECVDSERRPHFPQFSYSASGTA
# test.description: Inhibition of AKT1 after 10 mins by [gamma33]ATP assay
Mark Satisfied only when IC50 stays strictly below 400 nM. Values equal to the cut-off are Not satisfied.

Use these answered entries as a reference point.
molecule.smiles | tgt | assigned.category
N[C@H](CNc1ncc(-c2ccc3c(c2)CC(=O)N3)s1)Cc1ccc(C(F)(F)F)cc1 | RAC-alpha serine/threonine-protein kinase (Homo sapiens, UniProt P31749) | Satisfied
NC(=O)c1ccc(-c2cnc(NC[C@@H](N)Cc3ccc(C(F)(F)F)cc3)s2)cc1 | RAC-alpha serine/threonine-protein kinase (Homo sapiens, UniProt P31749) | Not satisfied

# check: IC50 < 400 nM for N[C@H](CNc1nnc(-c2ccc3cnccc3c2)s1)Cc1ccc(C(F)(F)F)cc1
Satisfied

Please state whether IC50 is below 400 nM for N[C@H](CNc1nnc(-c2ccc3cnccc3c2)o1)Cc1ccc(C(F)(F)F)cc1
Satisfied

Take the molecule N[C@H](CCc1nc(-c2ccc3cnccc3c2)no1)Cc1ccc(C(F)(F)F)cc1 and say whether its IC50 is less than 400 nM.
Not satisfied

hey, is IC50 for Nc1noc2ccc(-c3cnc(NC[C@@H](N)Cc4ccc(C(F)(F)F)cc4)s3)cc12 lower than 400 nM or not?
Not satisfied

Does the reported IC50 of N[C@H](CNc1ncc(-c2ccc3[nH]c(=O)sc3c2)s1)Cc1ccc(C(F)(F)F)cc1 stay below 400 nM?
Satisfied

I'd appreciate it if you could check whether Cn1ncc2ccc(-c3cnc(NC[C@@H](N)Cc4ccc(C(F)(F)F)cc4)s3)cc21 has IC50 smaller than 400 nM.
Not satisfied

Identify whether the molecule N[C@H](CNc1ncc(-c2ccc3c(c2)CNC3=O)s1)Cc1ccc(C(F)(F)F)cc1 records IC50 below 400 nM.
Satisfied

Dear colleague, could you confirm whether IC50 of N[C@H](CNc1ncc(-c2ccc3[nH]ncc3c2)s1)Cc1ccc(Cl)cc1 falls below 400 nM? Thanks.
Satisfied

Hello, is IC50 of the following molecule strictly smaller than 400 nM? Cn1c(=O)[nH]c2ccc(-c3cnc(NC[C@@H](N)Cc4ccc(C(F)(F)F)cc4)s3)cc21
Satisfied

Threshold test, IC50 < 400 nM: Cn1nc(N)c2ccc(-c3cnc(NC[C@@H](N)Cc4ccc(C(F)(F)F)cc4)s3)cc21
Not satisfied

Problem: For the molecule N[C@H](CNc1ncc(-c2ccc3[nH]c(=O)oc3c2)s1)Cc1ccc(C(F)(F)F)cc1 , is IC50 under 400 nM?
Satisfied
